target of assay: Androgen receptor (Homo sapiens, UniProt P10275, W742C)
test details: Antagonist activity at human androgen receptor W741C mutant expressed in COS7 cells assessed as inhibition of DHT-induced luciferase activity after 24 hrs by reporter gene assay
Values of IC50 strictly less than 3 µM map to Criterion met, and values of at least 3 µM map to Criterion not met.

# example entries with known answers
>>> class("CCOC(=O)c1c(C)[nH]c(C)c1-c1ccc([N+](=O)[O-])cc1")
"Criterion not met"
>>> class("Cc1c(C#N)c(-c2ccc(C#N)cc2)c(C)n1Cc1cnc(Cl)c(CO)c1")
"Criterion met"
>>> class("COC(=O)c1c(-c2ccc(C#N)c(C(F)(F)F)c2)c(C)n(Cc2ccccc2)c1C")
"Criterion not met"

Determine whether this molecule shows IC50 lower than 3 µM (ties excluded): Cc1c(-c2ccc(C#N)cc2)c(C#N)cn1Cc1cnc(Cl)c(CO)c1 Criterion met

And CCOC(=O)c1c(-c2ccc([N+](=O)[O-])cc2)c(C)n(-c2ccccc2)c1C ? Criterion not met

// same read-out, input: Cc1c(CO)c(-c2ccc([N+](=O)[O-])cc2)c(C)n1Cc1ccccc1 Criterion not met

Another molecule to check: Cc1c(C#N)c(-c2ccc(C#N)cc2)c(C)n1Cc1cncc(CO)c1 Criterion met

Query COC(=O)c1c(-c2ccccc2)c(C)n(Cc2ccccc2)c1C next Criterion not met

###

target of assay: Androgen receptor (Homo sapiens, UniProt P10275, W742C)
test details: Antagonist activity at human androgen receptor W741C mutant expressed in COS7 cells assessed as inhibition of DHT-induced luciferase activity after 24 hrs by reporter gene assay
pIC50: −log10 of the molar value.
pIC50 vs 6: at or above is yes (1), below is no (0).

>>> class("Cc1c(C#N)c(-c2ccc(C#N)cc2)c(C)n1Cc1ccccc1")
"yes (1)"
>>> class("CCOC(=O)c1c(-c2ccc([N+](=O)[O-])cc2)c(C)n(S(=O)(=O)c2ccccc2)c1C")
"no (0)"
>>> class("CC(=O)c1c(-c2ccc([N+](=O)[O-])cc2)c(C)n(Cc2ccccc2)c1C")
"no (0)"

Is it the case that Cc1c(C#N)c(-c2ccc(C#N)cc2)c(C)n1Cc1cccnc1 has pIC50 reaching or exceeding 6? yes (1)

Query Cc1cc(-c2ccc([N+](=O)[O-])cc2)c(C)n1Cc1ccccc1 next no (0)

# repeat for Cc1c(C(=O)O)c(-c2ccc([N+](=O)[O-])cc2)c(C)n1Cc1ccccc1 no (0)

Also need CCOC(=O)c1c(-c2ccc([N+](=O)[O-])cc2)c(C)n(Cc2ccccc2)c1C , thanks. no (0)

Same read-out for CCOC(=O)c1c(-c2ccc([N+](=O)[O-])cc2)c(C)n(C)c1C ? no (0)

###

target of assay: Androgen receptor (Homo sapiens, UniProt P10275)
Sequence (P10275 whole entry): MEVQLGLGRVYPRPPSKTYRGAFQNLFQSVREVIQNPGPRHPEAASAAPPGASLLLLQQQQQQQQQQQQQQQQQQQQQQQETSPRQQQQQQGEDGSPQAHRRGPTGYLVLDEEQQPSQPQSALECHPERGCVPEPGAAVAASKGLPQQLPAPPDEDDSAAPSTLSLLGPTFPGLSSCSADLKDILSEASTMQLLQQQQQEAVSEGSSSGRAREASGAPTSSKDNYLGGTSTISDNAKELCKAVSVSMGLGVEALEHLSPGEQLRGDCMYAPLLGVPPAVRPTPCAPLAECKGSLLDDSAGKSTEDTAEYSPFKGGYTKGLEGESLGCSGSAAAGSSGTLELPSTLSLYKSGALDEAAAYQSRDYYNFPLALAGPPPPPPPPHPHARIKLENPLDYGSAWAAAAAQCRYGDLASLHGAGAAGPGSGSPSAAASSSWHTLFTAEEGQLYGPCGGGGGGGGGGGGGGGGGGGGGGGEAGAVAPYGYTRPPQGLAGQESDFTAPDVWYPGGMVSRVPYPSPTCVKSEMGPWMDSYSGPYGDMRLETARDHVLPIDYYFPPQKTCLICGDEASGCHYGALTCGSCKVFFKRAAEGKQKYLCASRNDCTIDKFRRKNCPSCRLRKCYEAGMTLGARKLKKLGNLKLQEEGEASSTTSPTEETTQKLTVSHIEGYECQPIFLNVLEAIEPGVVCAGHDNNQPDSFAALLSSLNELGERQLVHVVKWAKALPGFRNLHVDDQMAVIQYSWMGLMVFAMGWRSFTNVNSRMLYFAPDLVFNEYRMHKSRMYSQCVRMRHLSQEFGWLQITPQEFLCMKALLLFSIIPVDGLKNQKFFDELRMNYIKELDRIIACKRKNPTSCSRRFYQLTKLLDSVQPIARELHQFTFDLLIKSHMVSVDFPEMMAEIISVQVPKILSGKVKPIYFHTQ
test details: Antagonist activity at human androgen receptor expressed in COS7 cells assessed as inhibition of DHT-induced luciferase activity after 24 hrs by reporter gene assay
Assay type: functional, cell-based, COS-7
Entries get a class label from measured IC50. See ranges: band A = under 300 nM, band B = from 300 nM up to 3000 nM, band C = 3000 nM and over

Worked examples, 3 molecules total:
>>> class("Cc1cc(-c2ccc([N+](=O)[O-])cc2)c(C)n1Cc1ccccc1")
"band B"
>>> class("COC(=O)c1c(-c2ccc(C#N)c(C(F)(F)F)c2)c(C)n(Cc2ccccc2)c1C")
"band B"
>>> class("CCOC(=O)c1c(-c2ccc([N+](=O)[O-])cc2)c(C)n(C(=O)c2ccccc2)c1C")
"band B"

Lab note: which band did Cc1c(C#N)c(-c2ccc(C#N)cc2)c(C)n1Cc1cncc(CO)c1 land in? band A

// same read-out, input: CC(=O)c1c(-c2ccc([N+](=O)[O-])cc2)c(C)n(Cc2ccccc2)c1C band C

Further, for Cc1c(CO)c(-c2ccc([N+](=O)[O-])cc2)c(C)n1Cc1ccccc1 ? band C

And for Cc1c(C#N)c(-c2ccc(C#N)cc2)c(C)n1Cc1ccccc1 ? band A

Repeat with COC(=O)c1c(-c2ccc(C#N)cc2)c(C)n(Cc2ccccc2)c1C band A

How about this molecule: COC(=O)c1c(-c2ccccc2)c(C)n(Cc2ccccc2)c1C band B

###

test details: Oral bioavailability in mouse at 5 mg/kg
Type: ADME, organism-based
condition notes: in vivo
property name: bioavailability (%)
# value in %; strip the unit string

Please give the measured bioavailability for this compound: Cc1c(C#N)c(-c2ccc(C#N)cc2)c(C)n1Cc1cnc(Cl)c(CO)c1 104

###

target of assay: Androgen receptor (Homo sapiens, UniProt P10275)
test details: Displacement of [17-alpha-methyl-3H]-mibolerone from human androgen receptor expressed in HEK293 derived FreeStyle293F cells after 3 hrs
Type: cell-based
property name: pIC50
For clarity, pIC50 is expressed as the negative log10 of concentration in mol/L.

Consider the following illustrative entries.
>>> val("CCOC(=O)c1c(C)[nH]c(C)c1-c1ccc([N+](=O)[O-])cc1")
7.66
>>> val("COC(=O)c1c(-c2ccc([N+](=O)[O-])cc2)c(C)n(Cc2ccccc2)c1C")
8.30
>>> val("Cc1c(C#N)c(-c2ccc(C#N)cc2)c(C)n1Cc1cnc(Cl)c(CO)c1")
7.43

For Cc1cc(-c2ccc([N+](=O)[O-])cc2)c(C)n1Cc1ccccc1 , what is its reported pIC50? 8.17

What do we get for CCOC(=O)c1c(-c2ccc([N+](=O)[O-])cc2)c(C)n(-c2ccccc2)c1C ? 6.26

Repeat for the following molecule: Cc1c(-c2ccc(C#N)cc2)c(C#N)cn1Cc1cnc(Cl)c(CO)c1 6.31

Also need Cc1c(C#N)c(-c2ccc(C#N)cc2)cn1Cc1cnc(Cl)c(CO)c1 , thanks. 7.11

Entry to check: CC(=O)c1c(-c2ccc([N+](=O)[O-])cc2)c(C)n(Cc2ccccc2)c1C 6.41

Repeat for the following molecule: COC(=O)c1c(-c2ccc(C#N)cc2)c(C)n(Cc2ccccc2)c1C 7.57

What about CCOC(=O)c1c(-c2ccc([N+](=O)[O-])cc2)c(C)n(C(=O)c2ccccc2)c1C ? 6.82

###

Each record here notes measured pIC50.
target of assay: Androgen receptor (Homo sapiens)
test details: Displacement of [17-alpha-methyl-3H]-mibolerone from human androgen receptor expressed in HEK293 derived FreeStyle293F cells after 3 hrs
Format: cell-based
Quick note: pIC50 means taking -log10 of the concentration in moles per liter.

Example cases with answers are listed next.
>>> val("Cc1c(C#N)c(-c2ccc(C#N)cc2)c(C)n1Cc1cccnc1")
8.47
>>> val("Cc1c(C#N)c(-c2ccc(C#N)cc2)c(C)n1Cc1ccccc1")
8.85
>>> val("Cc1c(C#N)c(-c2ccc(C#N)cc2)c(C)n1Cc1cncc(CO)c1")
7.85
>>> val("CCOC(=O)c1c(-c2ccc([N+](=O)[O-])cc2)c(C)n(Cc2ccccc2)c1C")
8.26
>>> val("CCOC(=O)c1c(-c2ccc([N+](=O)[O-])cc2)c(C)n(C)c1C")
7.33
>>> val("CCOC(=O)c1c(-c2ccc([N+](=O)[O-])cc2)c(C)n(CCc2ccccc2)c1C")
6.82

Value wanted: pIC50 (Androgen receptor (Homo sapiens)) of entry Cc1c(C(=O)O)c(-c2ccc([N+](=O)[O-])cc2)c(C)n1Cc1ccccc1 6.21

What about this compound? Cc1c(C#N)c(-c2ccc(C#N)cc2)c(C)n1Cc1ccc(Cl)nc1 8.05

Also COC(=O)c1c(-c2ccccc2)c(C)n(Cc2ccccc2)c1C , if possible. 6.89

Same again, this time with CCOC(=O)c1c(-c2ccc([N+](=O)[O-])cc2)c(C)n(CC2CCCCC2)c1C 6.51

Input COC(=O)c1c(-c2ccc(C#N)c(C(F)(F)F)c2)c(C)n(Cc2ccccc2)c1C 8.41

Now consider CCOC(=O)c1c(-c2ccc([N+](=O)[O-])cc2)c(C)n(S(=O)(=O)c2ccccc2)c1C and answer again. 6.89

What do you get for Cc1c(CO)c(-c2ccc([N+](=O)[O-])cc2)c(C)n1Cc1ccccc1 ? 6.52
